- protocol.details: physchem
- recorded.conditions: %Recovery (stability)

{"compound": "Oc1cc(O)cc(C=Cc2ccc(O)cc2O)c1 [Oxyresveratrol, 2,4,3′,5′–tetrahydroxystilbene]", "recovery at 12 h, 10 ng/mL [%]": 63.5}

* * *

- protocol.details: physchem
- recorded.conditions: %Recovery (stability)
reported.metric: recovery at 100 ng/mL (%)

{"compound": "Oc1cc(O)cc(C=Cc2ccc(O)cc2O)c1 [Oxyresveratrol, 2,4,3′,5′–tetrahydroxystilbene]", "measurement.unit": "%", "measured.number": 92.6}

* * *

- protocol.details: physchem
- recorded.conditions: %Recovery (stability)
reported.metric: recovery at 30 d, 400 ng/mL (%)

{"compound": "Oc1cc(O)cc(C=Cc2ccc(O)cc2O)c1 [Oxyresveratrol, 2,4,3′,5′–tetrahydroxystilbene]", "measurement.unit": "%", "measured.number": 81.1}
